Where do the numbers come from? From ChEMBL document CHEMBL4831556.

Assay: Tmax in Lewis rat at 1 mg/kg, iv measured upto 24 hrs by LC-MS/MS analysis
Format: ADME, organism-based
Conditions: in vivo
Tmax reference
Report the figure along with its unit, number first.

Challenge: Quote Tmax reported for `Cc1c(-c2ccc(NC(=O)c3c(F)cccc3Cl)cc2)cccc1-c1nn(C)c(=O)o1` please.
Response given: 4.8 min

More entries:
Challenge: Quote Tmax reported for `Cc1ccc(-c2nn(C)c(=O)o2)cc1-c1ccc(NC(=O)c2c(F)cccc2F)cc1` please.
Response given: 4.8 min

Challenge: Quote Tmax reported for `Cc1c(-c2ccc(NC(=O)c3c(F)cccc3F)cc2)cccc1-c1nn(C)c(=O)o1` please.
Response given: 4.8 min
